Taken from the METLIN SMRT retention time set (Domingo-Almenara et al. 2019).

# assay-protocol: gradient 5% acetonitrile 3 min, to 50% in 2 min, to 85% in 15 min, held 3 min, 100 µL/min
# stated-conditions: column: Zorbax Extend-C18 2.1 x 50 mm; eluents: water / acetonitrile, 0.1% formic acid
Reported RP-LC retention time values for a set of molecules
Hey, just the number and the unit after it is fine.

Return reported RP-LC retention time. Input molecule: COC(=O)c1cc(C2CC2)nc2c1c(=O)n(Cc1cccc(Cl)c1)c(=O)n2C
1160 s

Indicate the recorded RP-LC retention time value for this molecule: CC(=O)c1cccc(NC(=O)c2ncn(-c3ccccc3)n2)c1
731 s

Identify measured RP-LC retention time associated with CC(C)(C)CC(=O)N1CC2CN(S(=O)(=O)c3cccc(F)c3)CC(C1)O2
834 s

Look up RP-LC retention time of O=S(=O)(c1ccc2c(c1)CCCC2)N1CCCC1c1nc(-c2cccc(Cl)c2)no1 (centres undefined) and report it.
1410 s

Check the records and state RP-LC retention time for COc1ccc2[nH]c3c(c2c1)CCNC31CCN(C(=O)C2CCN2C2CCCCC2)CC1 (centres undefined)
576 s

Return value of RP-LC retention time for input COC1C(=O)N(c2cccc(F)c2)C12CCN(S(=O)(=O)Cc1ccccc1)CC2 (centres undefined) , no commentary.
1020 s

For COc1cccc2cc(-c3ccc(OCC(=O)N4CCC(C(N)=O)CC4)cc3)c(=O)oc12 , write its RP-LC retention time.
672 s

Provide one value: measured RP-LC retention time of COc1ccc(OC)c(S(=O)(=O)N2CCCC(C(=O)NCCC(C)C)C2)c1 (centres undefined)
863 s

Please give measured RP-LC retention time of the following entry: CSc1ccc(CNC(=O)c2ccc3ccnc(N4CCN(C(=O)c5ccco5)CC4)c3c2)cc1
732 s

###

# assay-protocol: gradient 5% acetonitrile 3 min, to 50% in 2 min, to 85% in 15 min, held 3 min, 100 µL/min
# stated-conditions: column: Zorbax Extend-C18 2.1 x 50 mm; eluents: water / acetonitrile, 0.1% formic acid
readout: RP-LC retention time (s)
State the answer as a number, implicitly in s.

Answer with the recorded RP-LC retention time for the molecule listed here: CCC1=NS(=O)(=O)c2cccnc2N1c1ccc(Br)c(C)c1
986

Return RP-LC retention time (reported value) for this molecule: COc1cc(C2CC(=O)N(CC(=O)N3CCCC3)c3ccccc3S2)cc(OC)c1OC (stereo not given)
792

Report RP-LC retention time, nothing else, for this molecule: COc1cccc(S(=O)(=O)N2CCCN(C)c3ccccc32)c1
976

Return reported RP-LC retention time. Input molecule: CNC(=O)c1cc[nH]c1C1CCCN(C(=O)c2ccc(Br)o2)C1 (stereo not given)
674

Return value of RP-LC retention time for input CC1(C(=O)NCc2ccc(F)cc2)CCCN(C(=O)NCc2ccco2)C1 (stereo not given) , no commentary.
765

###

# assay-protocol: gradient 5% acetonitrile 3 min, to 50% in 2 min, to 85% in 15 min, held 3 min, 100 µL/min
# stated-conditions: column: Zorbax Extend-C18 2.1 x 50 mm; eluents: water / acetonitrile, 0.1% formic acid
Values of RP-LC retention time greater than or equal to 700 s map to y; values below map to n.

molecule	assigned-label
O=C(NC1CCCCCC1)C1CCN(Cc2cc3ccccc3n2Cc2cccc(F)c2)CC1	y
Cc1nn(CC(=O)Nc2ccccc2C(F)(F)F)c(C)c1[N+](=O)[O-]	y

Identify whether the reported RP-LC retention time of the following molecule is 700 s or greater: Cc1ccc2oc(=O)c3cc(C(=O)N4CCN(c5ccccn5)CC4)sc3c2c1
n

Decide: is the reported value of RP-LC retention time for CCN1CCN(c2nc(F)c(F)c(S(=O)(=O)CCN3C(=O)CCC3=O)c2F)CC1 equal to or greater than 700 s?
n

Hi, just wondering whether Cc1sc(C)c(S(=O)(=O)NCc2ccccc2Cl)c1-c1cc(C(F)(F)F)on1 shows RP-LC retention time of 700 s or higher.
n
